Assayed Target: CXCR4 (Homo sapiens, UniProt P61073)
Sequence (P61073 whole entry): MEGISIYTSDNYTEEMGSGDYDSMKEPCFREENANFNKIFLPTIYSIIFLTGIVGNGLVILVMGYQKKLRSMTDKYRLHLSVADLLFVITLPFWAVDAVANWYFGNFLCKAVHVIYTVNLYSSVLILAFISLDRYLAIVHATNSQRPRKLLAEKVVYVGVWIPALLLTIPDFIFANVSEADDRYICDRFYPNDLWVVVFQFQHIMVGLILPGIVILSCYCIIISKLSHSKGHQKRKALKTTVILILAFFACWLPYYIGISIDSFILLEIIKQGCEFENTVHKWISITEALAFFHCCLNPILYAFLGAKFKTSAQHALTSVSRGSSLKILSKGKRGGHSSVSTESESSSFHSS
Assay Details: Chemotaxis assay, effect on SDF1-a (CXCL12) induced migration of CCRF-CEM cells
Format: cell-based
Parameters: a human T-cell ALL line that endogenously expresses CXCR4; endogenous in cells; host or cells: CCRF-CEM (human T-cell ALL line)
Measurement Conditions: CCRF-CEM, Table 18, i1 loop; CEM cells; drug conc 1.0 uM; read-out: Max (% of)
Square brackets hold non-standard residues; d marks the D form. Peptide text beside a SMILES is read from it. * marks the point of attachment. ξ: configuration not given here. Biotin = O=C1N[C@H]2[C@H](CS[C@H]2CCCCC(=O)*)N1; ξGly(nC16H33) = CCCCCCCCCCCCCCCCC(N)C(=O)O; Palmitoyl = CCCCCCCCCCCCCCCC(=O)*
activity at 1 µM vs 80%: at or above is t, below is f.

Record CCCCCCCCCCCCCCCC(=O)N[C@H](C(=O)N[C@@H](CCSC)C(=O)NCC(=O)N[C@@H](Cc1ccc(O)cc1)C(=O)N[C@@H](CCC(N)=O)C(=O)N[C@@H](CCCCN)C(=O)N[C@@H](CCCCN)C(=O)N[C@@H](CC(C)C)C(=O)N[C@@H](CCCNC(=N)N)C(=O)N[C@@H](CO)C(=O)N[C@@H](CCSC)C(=O)N[C@H](C(=O)N[C@@H](CC(=O)O)C(N)=O)[C@@H](C)O)C(C)C [Compound 35] (Palmitoyl-VMGYQKKLRSMTD-NH2) ; criterion: activity at 1 µM no lower than 80%. Met?
f

Record CCCCCCCCCCCCCCCC(=O)N[C@@H](CO)C(=O)NCC(=O)N[C@@H](Cc1ccc(O)cc1)C(=O)N[C@@H](CCC(N)=O)C(=O)N[C@@H](CCCCN)C(=O)N[C@@H](CCCCN)C(=O)N[C@@H](CC(C)C)C(=O)N[C@@H](CCCNC(=N)N)C(=O)N[C@@H](CO)C(=O)N[C@@H](CO)C(=O)N[C@H](C(=O)N[C@@H](CC(=O)O)C(N)=O)[C@@H](C)O [Compound 69] (Palmitoyl-SGYQKKLRSSTD-NH2) ; criterion: activity at 1 µM no lower than 80%. Met?
t

Record CCCCCCCCCCCCCCCC(=O)N[C@@H](CCCCN)C(=O)N[C@@H](CCCCN)C(=O)N[C@@H](CC(C)C)C(=O)N[C@@H](CCCNC(=N)N)C(=O)N[C@@H](CO)C(=O)N[C@@H](CCSC)C(=O)N[C@H](C(=O)N[C@@H](CC(=O)O)C(=O)N[C@@H](CCCCN)C(=O)N[C@@H](Cc1ccc(O)cc1)C(=O)N[C@@H](CCCNC(=N)N)C(=O)N[C@@H](CC(C)C)C(=O)N[C@@H](Cc1cnc[nH]1)C(=O)N[C@@H](CC(C)C)C(=O)N[C@@H](CO)C(=O)N[C@H](C(N)=O)C(C)C)[C@@H](C)O [Compound 41] (Palmitoyl-KKLRSMTDKYRLHLSV-NH2) ; criterion: activity at 1 µM no lower than 80%. Met?
f

Record CCCCCCCCCCCCCCCCC(NC(=O)CCCC[C@@H]1SC[C@@H]2NC(=O)N[C@@H]21)C(=O)N[C@@H](CCSC)C(=O)NCC(=O)N[C@@H](Cc1ccc(O)cc1)C(=O)N[C@@H](CCC(N)=O)C(=O)N[C@@H](CCCCN)C(=O)N[C@@H](CCCCN)C(=O)N[C@@H](CC(C)C)C(=O)N[C@@H](CCCNC(=N)N)C(=O)N[C@@H](CO)C(=O)N[C@@H](CCSC)C(=O)N[C@H](C(=O)N[C@@H](CC(=O)O)C(N)=O)[C@@H](C)O (some centres unmarked) [Compound 33] (Biotin-[ξGly(nC16H33)]MGYQKKLRSMTD-NH2) ; criterion: activity at 1 µM no lower than 80%. Met?
f

Record CCCCCCCCCCCCCCCC(=O)N[C@@H](CCCCN)C(=O)N[C@@H](CCCCN)C(=O)N[C@@H](CC(C)C)C(=O)N[C@@H](CCCNC(=N)N)C(=O)N[C@@H](CO)C(=O)N[C@@H](CCSC)C(=O)N[C@H](C(=O)N[C@@H](CC(=O)O)C(=O)N[C@@H](CCCCN)C(=O)N[C@@H](Cc1ccc(O)cc1)C(N)=O)[C@@H](C)O [Compound 46] (Palmitoyl-KKLRSMTDKY-NH2) ; criterion: activity at 1 µM no lower than 80%. Met?
t

Record CCCCCCCCCCCCCCCC(=O)N[C@@H](CCSC)C(=O)NCC(=O)N[C@@H](Cc1ccc(O)cc1)C(=O)N[C@@H](CCC(N)=O)C(=O)N[C@@H](CCCCN)C(=O)N[C@@H](CCCCN)C(=O)N[C@@H](CC(C)C)C(=O)N[C@@H](CCCNC(=N)N)C(=O)N[C@@H](CO)C(=O)N[C@@H](CCSC)C(=O)N[C@H](C(=O)N[C@@H](CC(=O)O)C(=O)N[C@@H](CCCCN)C(=O)N[C@@H](Cc1ccc(O)cc1)C(=O)N[C@@H](CCCNC(=N)N)C(=O)N[C@H](C(N)=O)[C@@H](C)CC)[C@@H](C)O [Compound 49] (Palmitoyl-MGYQKKLRSMTDKYRI-NH2) ; criterion: activity at 1 µM no lower than 80%. Met?
f

Record CCCCCCCCCCCCCCCC(=O)N[C@@H](CCSC)C(=O)NCC(=O)N[C@@H](Cc1ccc(O)cc1)C(=O)N[C@@H](CCC(N)=O)C(=O)N[C@@H](CCCCN)C(=O)N[C@@H](CCCCN)C(=O)N[C@@H](CC(C)C)C(=O)N[C@@H](CCCNC(=N)N)C(=O)N[C@@H](CO)C(=O)N[C@@H](CCSC)C(=O)N[C@H](C(=O)N[C@@H](CC(=O)O)C(=O)N[C@@H](CCCCN)C(=O)N[C@@H](Cc1ccc(O)cc1)C(N)=O)[C@@H](C)O [Compound 37] (Palmitoyl-MGYQKKLRSMTDKY-NH2) ; criterion: activity at 1 µM no lower than 80%. Met?
t
